B1: CPEB3 Ribozyme (parent)
chain: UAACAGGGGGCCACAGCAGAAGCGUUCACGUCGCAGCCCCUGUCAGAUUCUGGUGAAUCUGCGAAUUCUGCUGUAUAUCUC

Variants of: B1
assay procedure: self-cleavage, relative activity (ratio to wild type); higher = more cleavage; in vitro, sequencing
Please go through the items and note down their self-cleavage.
Numbers only.

Example entries begin here.
// C11U C32A : self-cleavage value = 0.2

// A64U U72A : self-cleavage value = 0.35

Give one value of self-cleavage per listed variant.
1. G10A U80G
2. G19U U51C

result:
0.25
0.22

Give one value of self-cleavage per listed variant.
1. A45G A65C
2. A18G G24A
3. C12A A35G

result:
1. 0.24
2. 0.15
3. 0.9

// A15U G61A : self-cleavage value = 0.37
